Measured Minimum Inhibitory Concentration values are reported for all entries that follow.
tested on: M. phlei Ac-1221; format: cell-based; details: 24 h
Positions of bridges follow the written chain, without caps; N, C: chain ends. No end group written: not given here.
Answer with a number only, understood to be in µM.

INSERT INTO measurements (biopolymer_sequence, endpoint_value) VALUES
  ('KTYYGTNAVHCTKKSLWGKVRLKNVIPGTLCRKQSLPIKQDLKILLGWATGAFGKTFH (disulfide 11-31) [AcdA(G8A)]', 2),
  ('KTYYGNGVHSTKKSLWGKVRLKNVIPGTLCRKQSLPIKQDLKILLGWATGAFGKTFH [AcdA(dT,C11S)]', 4),
  ('HCTKKSLWGKVRLKNVIPGTLCRKQSLPIKQDLKILLGWATGAFGKTFH (disulfide 2-22) [AcdA(d9)]', 4),
  ('KTYYGTNGVHCTKNSLWGKVRLKNVKYDQNTTYIGRLQDILLGWATGAFGKTFH [OR-7(VI)]', 32),
  ('KTYYGNGVHCTKKSLWGKVRLKNVIPGTLSRKQSLPIKQDLKILLGWATGAFGKTFH [AcdA(dT,C31S)]', 4);

# input for lookup
Q: Value lookup for Minimum Inhibitory Concentration; key = KTYYGNGVHCTKKSLWGKVRLKNVIPGTLCRKQSLPIKQDLKILLGWATGAFGKTFH (disulfide 10-30) [AcdA(dT)]
A: 2
